biological target: rat angiotensin 2 type 1 receptor (rat) (UniProt P25095); assay: cell-based or functional assay
Sequence (P25095 whole entry): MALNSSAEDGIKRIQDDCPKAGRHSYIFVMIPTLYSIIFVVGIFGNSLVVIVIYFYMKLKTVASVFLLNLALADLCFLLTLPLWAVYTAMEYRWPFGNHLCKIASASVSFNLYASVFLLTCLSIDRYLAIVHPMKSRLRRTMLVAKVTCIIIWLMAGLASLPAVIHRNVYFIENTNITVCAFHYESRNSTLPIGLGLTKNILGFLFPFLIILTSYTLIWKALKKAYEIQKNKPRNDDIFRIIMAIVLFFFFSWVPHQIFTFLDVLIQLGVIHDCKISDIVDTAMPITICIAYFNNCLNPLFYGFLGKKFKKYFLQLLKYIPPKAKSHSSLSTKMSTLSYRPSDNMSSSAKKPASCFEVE
Each record here notes measured IP One EC50.
Express your answer in nM, writing the number without its unit.

| binder | unit-info | recorded-result |
| --- | --- | --- |
| RVYYHPI (N-terminal Sar; C-terminal amide) [SEQ ID NO: 15 (Sar-Arg-Val-Tyr-Tyr-His-Pro-Ile-NH2)] | nM | 77 |

In the following, a different binder is considered.
For the binder shown here, FVYIHPFVYIHPFVYIHP (cyclic) [SEQ ID NO: 37 (Cyclo(Phe-Val-Tyr-Ile-His-Pro-Phe-Val-Tyr-Ile-His-Pro-Phe-Val-Tyr-Ile-His-Pro))] , give the reported IP One EC50. 240
